- System: J774.A1
- PROTOCOL NOTES: Cytotoxicity against mouse J774.A1 cells assessed as cell viability at 10 to 20 uM after 24 hrs by MTT assay
- Assay type: cell-based
- CONDITION INFO: j774.a1, 24 h, dose 10-20 µM
MEASURE: Activity

CC1=C(CCc2ccoc2)[C@@]2(C)CCCC(C)(C)[C@@H]2C/C1=N/OC(=O)CCCCC(=O)O/N=C1/C[C@H]2C(C)(C)CCC[C@]2(C)C(CCc2ccoc2)=C1C = Non-Toxic
CC1=C(CCc2ccoc2)[C@@]2(C)CCCC(C)(C)[C@@H]2C/C1=N/OC(=O)c1ccc(C(=O)O/N=C2/C[C@H]3C(C)(C)CCC[C@]3(C)C(CCc3ccoc3)=C2C)cc1 = Non-Toxic
CC1=C(CCc2ccoc2)[C@@]2(C)CCCC(C)(C)[C@@H]2CC1=O = Toxic
CC1=C(CCc2ccoc2)[C@@]2(C)CCCC(C)(C)[C@@H]2C/C1=N/OC(=O)c1ccc(C(=O)O)cc1 = Toxic
CC1=C(CCC2CCOC2)[C@@]2(C)CCCC(C)(C)[C@@H]2CC1=O (stereo partly drawn) = Non-Toxic
CC1=C(CCc2ccoc2)[C@@]2(C)CCCC(C)(C)[C@@H]2C/C1=N/OC(=O)N(C)C = Non-Toxic
CO[C@H]1C[C@H]2C(C)(C)CCC[C@]2(C)C(CCc2ccoc2)=C1C = Non-Toxic
CC1=C(CCc2ccoc2)[C@@]2(C)CCCC(C)(C)[C@@H]2C/C1=N/OS(=O)(=O)c1ccc(C)cc1 = Non-Toxic

Go through the list and state Activity for each entry.
1. CC1=C(CCc2ccoc2)[C@@]2(C)CCCC(C)(C)[C@@H]2C/C1=N/O
2. CC1=C(CCc2ccoc2)[C@@]2(C)CCCC(C)(C)[C@@H]2C[C@@H]1O
3. CO/N=C1/C[C@H]2C(C)(C)CCC[C@]2(C)C(CCc2ccoc2)=C1C

Out:
1. Non-Toxic
2. Toxic
3. Non-Toxic

Go through the list and state Activity for each entry.
1. CCC1=C(Cc2ccoc2)C(=O)[C@@]2(C)CCCC(C)(C)[C@@H]2C1
2. CCCCCCCCCCCC(=O)O/N=C1/C[C@H]2C(C)(C)CCC[C@]2(C)C(CCc2ccoc2)=C1C
3. CC1=C(CCc2ccoc2)[C@@]2(C)CCCC(C)(C)[C@@H]2C/C1=N/OC(=O)c1ccc(Br)cc1
4. CC1=C(CCc2ccoc2)[C@@]2(C)CCCC(C)(C)[C@@H]2CC1N (stereo partly drawn)
5. CC1=C(CCc2ccoc2)[C@@]2(C)CCCC(C)(C)[C@@H]2C/C1=N/OC(=O)c1cccc(C(=O)O/N=C2/C[C@H]3C(C)(C)CCC[C@]3(C)C(CCc3ccoc3)=C2C)n1
6. CC1=C(CCc2ccoc2)[C@@]2(C)CCCC(C)(C)[C@@H]2CC(=O)N1
7. CC(=O)O/N=C1/C[C@H]2C(C)(C)CCC[C@]2(C)C(CCc2ccoc2)=C1C

Out:
1: Non-Toxic; 2: Non-Toxic; 3: Non-Toxic; 4: Toxic; 5: Non-Toxic; 6: Non-Toxic; 7: Non-Toxic

====

Please respond with reported pIC50 for every item in the list.
- SYSTEM NAME: NACHT, LRR and PYD domains-containing protein 3 (Mus musculus, UniProt Q8R4B8)
- Sequence (Q8R4B8 whole entry, the tested form may be a part): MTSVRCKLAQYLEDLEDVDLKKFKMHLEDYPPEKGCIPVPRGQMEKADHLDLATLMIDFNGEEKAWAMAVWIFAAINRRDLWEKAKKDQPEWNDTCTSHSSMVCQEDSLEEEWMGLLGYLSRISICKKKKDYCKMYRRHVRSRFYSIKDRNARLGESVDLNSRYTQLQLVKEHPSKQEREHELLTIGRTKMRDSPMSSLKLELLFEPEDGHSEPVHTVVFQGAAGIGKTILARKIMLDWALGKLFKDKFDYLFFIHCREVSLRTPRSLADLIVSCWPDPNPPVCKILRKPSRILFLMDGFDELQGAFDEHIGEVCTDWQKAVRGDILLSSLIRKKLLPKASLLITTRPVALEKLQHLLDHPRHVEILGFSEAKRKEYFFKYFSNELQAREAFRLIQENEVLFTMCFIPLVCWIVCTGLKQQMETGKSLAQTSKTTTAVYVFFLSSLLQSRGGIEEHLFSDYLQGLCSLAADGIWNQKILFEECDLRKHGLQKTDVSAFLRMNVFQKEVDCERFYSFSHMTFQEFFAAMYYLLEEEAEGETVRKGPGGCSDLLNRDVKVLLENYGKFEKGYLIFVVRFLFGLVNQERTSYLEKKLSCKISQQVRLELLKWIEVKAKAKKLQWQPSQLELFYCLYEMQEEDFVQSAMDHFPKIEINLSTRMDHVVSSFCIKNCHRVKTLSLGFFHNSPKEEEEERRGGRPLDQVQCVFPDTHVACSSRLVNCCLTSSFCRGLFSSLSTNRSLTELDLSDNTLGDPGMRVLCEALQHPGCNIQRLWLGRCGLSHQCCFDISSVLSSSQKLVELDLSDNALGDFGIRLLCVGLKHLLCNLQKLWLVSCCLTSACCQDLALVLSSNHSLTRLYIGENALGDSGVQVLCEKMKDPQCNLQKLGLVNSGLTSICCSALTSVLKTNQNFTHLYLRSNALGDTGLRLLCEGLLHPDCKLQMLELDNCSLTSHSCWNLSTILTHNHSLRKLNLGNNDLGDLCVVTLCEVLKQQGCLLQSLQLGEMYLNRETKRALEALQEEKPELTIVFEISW
- PROTOCOL NOTES: Inhibition of NLRP3 in mouse J774A.1 cells assessed as inhibition of LPS and nigerecin-induced IL-1beta production pre-stimulated with LPS for 5 hrs followed by compound treatment for 30 mins and then nigericin addition for 45 mins by ELISA
One number for each entry, as −log10 of the molar value.

CCCCCCCCCCCC(=O)O/N=C1/C[C@H]2C(C)(C)CCC[C@]2(C)C(CCc2ccoc2)=C1C = 4.73

# compound CC1=C(CCc2ccoc2)[C@@]2(C)CCCC(C)(C)[C@@H]2C/C1=N/OC(=O)c1ccc(C(=O)O/N=C2/C[C@H]3C(C)(C)CCC[C@]3(C)C(CCc3ccoc3)=C2C)cc1 ; its pIC50 = 4.86
